These entries and their values trace back to ChEMBL document CHEMBL1135524.

- Test system: HL-60
- Test protocol: Ability to induce differentiation of human promyelocyte HL-60 cells into monocytes.
- Type: functional
- Measurement context: read-out: ED50 (the source's name)
Test readout: pEC50
Quick note: pEC50 values are minus log10 of concentrations in mol/L.

# Smiles representation, pEC50
data = [
    ("CC=C1[C@H](O)CC(=C/C=C2\\CCC[C@]3(C)[C@@H]([C@H](C)CCCC(C)(C)O)CC[C@@H]23)C[C@H]1O", 8.40),
]

Reported pEC50, molecule CC=C1[C@H](O)CC(=C/C=C2\CCC[C@]3(C)[C@@H]([C@@H](C)CCCC(C)(C)O)CC[C@@H]23)C[C@H]1O : ____
9.82
